The reader will find reported Death rate values listed item by item below.
Tested on: sample bacteria (S. aureus 209P, E. coli O-157)
METHOD: Death rate over time, food preservative in purified water pH 3.0; also: unit not given here
EXPERIMENTAL CONTEXT: 50 ppm, 90 min

MOLECULE | STUDY TARGET | Death rate
O=C([O-])c1ccccc1.[Na+] [Sodium benzoate] | sample bacteria (S. aureus 209P, E. coli O-157) | 8
C/C=C/C=C/C(=O)[O-].[K+] [Potassium sorbate] | sample bacteria (S. aureus 209P, E. coli O-157) | 8
C/C=C/C=C/C(=O)O [Sorbic acid] | sample bacteria (S. aureus 209P, E. coli O-157) | 10
CCOC(=O)c1ccc(O)cc1 [Ethyl para-hydroxybenzoate] | sample bacteria (S. aureus 209P, E. coli O-157) | 8
O=C(O)c1ccccc1 [Benzoic acid] | sample bacteria (S. aureus 209P, E. coli O-157) | 10
